Target: Dual specificity mitogen-activated protein kinase kinase 7 (Homo sapiens)
Sequence (O14733 whole entry): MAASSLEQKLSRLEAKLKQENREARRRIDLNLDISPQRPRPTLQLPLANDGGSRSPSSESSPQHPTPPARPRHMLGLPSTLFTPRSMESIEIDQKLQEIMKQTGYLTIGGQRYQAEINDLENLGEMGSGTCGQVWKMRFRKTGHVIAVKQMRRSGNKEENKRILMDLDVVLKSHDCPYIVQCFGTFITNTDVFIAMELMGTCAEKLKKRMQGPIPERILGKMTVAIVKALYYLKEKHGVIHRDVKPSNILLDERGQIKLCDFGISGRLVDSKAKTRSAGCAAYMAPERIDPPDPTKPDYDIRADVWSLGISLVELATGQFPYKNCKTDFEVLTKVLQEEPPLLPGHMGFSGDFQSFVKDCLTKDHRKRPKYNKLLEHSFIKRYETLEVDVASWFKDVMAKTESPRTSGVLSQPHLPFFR
Test: Binding affinity to recombinant human full-length N-terminal GST-tagged MAP2K7 (1 to 419 residues) expressed in baculovirus expression system using JNK2 as substrate incubated for 1 hr by TR-FRET assay
Parameter Measured: Kd

Smiles Record: CO[C@@H]1[C@H](NCCOCCOCCOCCNC(=O)CCC2=[N+]3C(=Cc4c(C)cc(C)n4[B-]3(F)F)C=C2)C[C@H]2O[C@]1(C)n1c3ccccc3c3c4c(c5c6ccccc6n2c5c31)C(=O)NC4
Parameter Measured: Kd
Reading: 293 nM

* * *

A collection of compounds and their measured pKd
Biological target: Dual specificity protein kinase CLK4 (Homo sapiens)
Sequence (Q9HAZ1 whole entry): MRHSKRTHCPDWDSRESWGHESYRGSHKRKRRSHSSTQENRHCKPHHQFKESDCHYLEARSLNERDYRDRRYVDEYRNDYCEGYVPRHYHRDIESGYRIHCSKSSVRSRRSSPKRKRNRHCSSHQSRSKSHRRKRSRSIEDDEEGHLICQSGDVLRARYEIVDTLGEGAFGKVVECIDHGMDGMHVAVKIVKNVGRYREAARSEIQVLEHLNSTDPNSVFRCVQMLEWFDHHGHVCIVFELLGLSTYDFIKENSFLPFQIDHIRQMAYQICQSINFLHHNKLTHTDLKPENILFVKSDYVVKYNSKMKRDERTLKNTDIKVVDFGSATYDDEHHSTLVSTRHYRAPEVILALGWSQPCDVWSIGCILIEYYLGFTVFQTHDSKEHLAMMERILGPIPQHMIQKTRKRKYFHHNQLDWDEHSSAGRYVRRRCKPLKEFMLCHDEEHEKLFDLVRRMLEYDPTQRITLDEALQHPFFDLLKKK
Experiment: Binding affinity to recombinant human full length N-terminal GST-tagged CLK4 expressed in baculovirus expression system incubated for 1 hr by TR-FRET assay
pKd: −log10 of the molar value.

Smiles Record: CO[C@@H]1[C@H](NCCOCCOCCOCCNC(=O)CCC2=[N+]3C(=Cc4c(C)cc(C)n4[B-]3(F)F)C=C2)C[C@H]2O[C@]1(C)n1c3ccccc3c3c4c(c5c6ccccc6n2c5c31)C(=O)NC4
pKd: 7.05
//
Smiles Record: CO[C@@H]1[C@H](N(C)CCOCCOCCOCCNC(=O)CCC2=[N+]3C(=Cc4c(C)cc(C)n4[B-]3(F)F)C=C2)C[C@H]2O[C@]1(C)n1c3ccccc3c3c4c(c5c6ccccc6n2c5c31)C(=O)NC4
pKd: 7.09

* * *

Biological target: NUAK family SNF1-like kinase 1 (Homo sapiens, UniProt O60285)
Sequence (O60285 whole entry): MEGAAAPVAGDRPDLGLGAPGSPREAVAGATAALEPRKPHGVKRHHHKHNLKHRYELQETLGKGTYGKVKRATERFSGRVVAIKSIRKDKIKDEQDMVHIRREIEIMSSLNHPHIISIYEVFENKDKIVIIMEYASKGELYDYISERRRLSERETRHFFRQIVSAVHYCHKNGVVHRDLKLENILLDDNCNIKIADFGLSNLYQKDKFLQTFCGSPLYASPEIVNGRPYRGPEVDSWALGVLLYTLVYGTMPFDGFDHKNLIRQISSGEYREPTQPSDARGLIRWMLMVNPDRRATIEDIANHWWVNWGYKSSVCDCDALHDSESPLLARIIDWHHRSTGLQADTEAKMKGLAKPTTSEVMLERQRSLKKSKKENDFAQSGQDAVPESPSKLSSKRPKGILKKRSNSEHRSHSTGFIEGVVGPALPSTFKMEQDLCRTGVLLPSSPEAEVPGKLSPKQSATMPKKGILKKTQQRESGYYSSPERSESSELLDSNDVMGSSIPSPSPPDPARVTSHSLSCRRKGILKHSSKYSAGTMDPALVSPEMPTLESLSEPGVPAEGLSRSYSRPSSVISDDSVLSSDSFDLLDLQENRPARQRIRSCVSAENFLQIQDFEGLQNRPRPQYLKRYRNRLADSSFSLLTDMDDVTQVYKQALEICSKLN
Test: Binding affinity to recombinant full-length N-terminal His-FLAG-GST-tagged NUAK1 (unknown origin) expressed in baculovirus infected Sf9 insect cells incubated for 1 hr by TR-FRET assay

Smiles Record: CO[C@@H]1[C@H](NCCOCCOCCOCCNC(=O)CCC2=[N+]3C(=Cc4c(C)cc(C)n4[B-]3(F)F)C=C2)C[C@H]2O[C@]1(C)n1c3ccccc3c3c4c(c5c6ccccc6n2c5c31)C(=O)NC4
Kd: 15 nM
//
Smiles Record: CO[C@@H]1[C@H](N(C)CCOCCOCCOCCNC(=O)CCC2=[N+]3C(=Cc4c(C)cc(C)n4[B-]3(F)F)C=C2)C[C@H]2O[C@]1(C)n1c3ccccc3c3c4c(c5c6ccccc6n2c5c31)C(=O)NC4
Kd: 13 nM

* * *

Biological target: Interleukin-1 receptor-associated kinase 4 (Homo sapiens, UniProt Q9NWZ3)
Sequence (Q9NWZ3 whole entry): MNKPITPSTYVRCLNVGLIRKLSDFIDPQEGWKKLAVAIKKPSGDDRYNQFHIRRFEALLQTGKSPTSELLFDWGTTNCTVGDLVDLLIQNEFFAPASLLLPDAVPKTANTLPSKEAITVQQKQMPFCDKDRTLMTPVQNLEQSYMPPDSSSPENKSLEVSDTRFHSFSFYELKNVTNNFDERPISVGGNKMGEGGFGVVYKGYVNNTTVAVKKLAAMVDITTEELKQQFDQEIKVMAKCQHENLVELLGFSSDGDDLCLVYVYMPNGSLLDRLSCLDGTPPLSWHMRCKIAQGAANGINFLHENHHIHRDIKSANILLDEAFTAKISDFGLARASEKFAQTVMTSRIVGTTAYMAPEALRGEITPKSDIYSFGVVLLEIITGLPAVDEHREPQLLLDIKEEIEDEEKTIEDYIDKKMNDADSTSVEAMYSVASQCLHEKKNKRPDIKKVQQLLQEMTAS
Experiment: Binding affinity to recombinant full-length human N-terminal his-tagged IRAK4 expressed in baculovirus expression system using IRAK1 peptide as substrate incubated for 1 hr by TR-FRET assay

Smiles Record: CO[C@@H]1[C@H](NCCOCCOCCOCCNC(=O)CCC2=[N+]3C(=Cc4c(C)cc(C)n4[B-]3(F)F)C=C2)C[C@H]2O[C@]1(C)n1c3ccccc3c3c4c(c5c6ccccc6n2c5c31)C(=O)NC4
Units Text: nM
Kd: 23

Smiles Record: CO[C@@H]1[C@H](N(C)CCOCCOCCOCCNC(=O)CCC2=[N+]3C(=Cc4c(C)cc(C)n4[B-]3(F)F)C=C2)C[C@H]2O[C@]1(C)n1c3ccccc3c3c4c(c5c6ccccc6n2c5c31)C(=O)NC4
Units Text: nM
Kd: 75

* * *

Molecular target: BMP-2-inducible protein kinase (Homo sapiens, UniProt Q9NSY1)
Sequence (Q9NSY1 whole entry): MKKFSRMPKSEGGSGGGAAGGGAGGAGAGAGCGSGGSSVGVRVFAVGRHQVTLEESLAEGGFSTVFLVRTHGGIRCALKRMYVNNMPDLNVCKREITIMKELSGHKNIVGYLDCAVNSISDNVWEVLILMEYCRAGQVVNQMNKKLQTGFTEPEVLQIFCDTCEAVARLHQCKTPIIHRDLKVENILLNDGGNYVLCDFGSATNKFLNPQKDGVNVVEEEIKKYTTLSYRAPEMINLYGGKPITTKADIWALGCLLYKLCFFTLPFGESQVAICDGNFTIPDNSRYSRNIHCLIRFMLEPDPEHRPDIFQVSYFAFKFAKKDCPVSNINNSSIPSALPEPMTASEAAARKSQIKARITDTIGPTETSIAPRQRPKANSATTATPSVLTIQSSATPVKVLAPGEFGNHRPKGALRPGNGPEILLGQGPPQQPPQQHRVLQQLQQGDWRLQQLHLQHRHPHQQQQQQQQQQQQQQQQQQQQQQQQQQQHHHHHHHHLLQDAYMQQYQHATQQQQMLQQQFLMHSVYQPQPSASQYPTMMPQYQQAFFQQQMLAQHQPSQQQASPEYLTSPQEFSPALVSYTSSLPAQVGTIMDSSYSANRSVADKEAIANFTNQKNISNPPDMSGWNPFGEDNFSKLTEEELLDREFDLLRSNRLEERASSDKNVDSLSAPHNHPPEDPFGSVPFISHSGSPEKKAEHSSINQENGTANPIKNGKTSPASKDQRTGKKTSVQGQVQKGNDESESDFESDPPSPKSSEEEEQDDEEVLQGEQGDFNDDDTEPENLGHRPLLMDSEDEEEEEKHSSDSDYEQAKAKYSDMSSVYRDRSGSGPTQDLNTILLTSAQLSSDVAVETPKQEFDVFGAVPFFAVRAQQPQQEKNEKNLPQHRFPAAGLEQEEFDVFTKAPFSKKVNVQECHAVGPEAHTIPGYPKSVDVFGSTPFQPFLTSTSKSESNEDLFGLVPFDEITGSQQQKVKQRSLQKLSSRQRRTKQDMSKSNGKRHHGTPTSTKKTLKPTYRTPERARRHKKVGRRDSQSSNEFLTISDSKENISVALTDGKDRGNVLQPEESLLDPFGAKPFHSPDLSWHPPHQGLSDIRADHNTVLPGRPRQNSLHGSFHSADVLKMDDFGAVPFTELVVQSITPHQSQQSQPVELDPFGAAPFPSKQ
Experiment: Binding affinity to recombinant full-length N-terminal His-FLAG-GST-tagged BMP2K (unknown origin) expressed in baculovirus infected Sf9 insect cells incubated for 1 hr by TR-FRET assay
Parameter Measured: Kd (nM)

Smiles Record: CO[C@@H]1[C@H](N(C)CCOCCOCCOCCNC(=O)CCC2=[N+]3C(=Cc4c(C)cc(C)n4[B-]3(F)F)C=C2)C[C@H]2O[C@]1(C)n1c3ccccc3c3c4c(c5c6ccccc6n2c5c31)C(=O)NC4
Parameter Measured: Kd
Reading: 19
//
Smiles Record: CO[C@@H]1[C@H](NCCOCCOCCOCCNC(=O)CCC2=[N+]3C(=Cc4c(C)cc(C)n4[B-]3(F)F)C=C2)C[C@H]2O[C@]1(C)n1c3ccccc3c3c4c(c5c6ccccc6n2c5c31)C(=O)NC4
Parameter Measured: Kd
Reading: 24

* * *

Target: Serine/threonine-protein kinase 16 (Homo sapiens, UniProt O75716)
Sequence (O75716 whole entry): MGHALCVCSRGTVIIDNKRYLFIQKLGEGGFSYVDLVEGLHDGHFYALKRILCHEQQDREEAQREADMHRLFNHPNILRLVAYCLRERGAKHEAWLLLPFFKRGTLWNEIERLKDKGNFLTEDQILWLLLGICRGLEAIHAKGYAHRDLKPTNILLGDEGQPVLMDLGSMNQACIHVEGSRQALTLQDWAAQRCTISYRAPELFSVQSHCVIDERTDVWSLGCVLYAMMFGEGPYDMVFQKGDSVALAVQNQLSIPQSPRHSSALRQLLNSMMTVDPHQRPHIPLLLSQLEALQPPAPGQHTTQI
Test: Binding affinity to recombinant full-length N-terminal His-FLAG-GST-tagged STK16 (unknown origin) expressed in baculovirus infected Sf9 insect cells incubated for 1 hr by TR-FRET assay
pKd: −log10 of the molar value.

Smiles Record: CO[C@@H]1[C@H](NCCOCCOCCOCCNC(=O)CCC2=[N+]3C(=Cc4c(C)cc(C)n4[B-]3(F)F)C=C2)C[C@H]2O[C@]1(C)n1c3ccccc3c3c4c(c5c6ccccc6n2c5c31)C(=O)NC4
pKd: 6.44

Smiles Record: CO[C@@H]1[C@H](N(C)CCOCCOCCOCCNC(=O)CCC2=[N+]3C(=Cc4c(C)cc(C)n4[B-]3(F)F)C=C2)C[C@H]2O[C@]1(C)n1c3ccccc3c3c4c(c5c6ccccc6n2c5c31)C(=O)NC4
pKd: 6.96

* * *

Target: UniProt P54764
Sequence (P54764 whole entry, the tested form may be a part): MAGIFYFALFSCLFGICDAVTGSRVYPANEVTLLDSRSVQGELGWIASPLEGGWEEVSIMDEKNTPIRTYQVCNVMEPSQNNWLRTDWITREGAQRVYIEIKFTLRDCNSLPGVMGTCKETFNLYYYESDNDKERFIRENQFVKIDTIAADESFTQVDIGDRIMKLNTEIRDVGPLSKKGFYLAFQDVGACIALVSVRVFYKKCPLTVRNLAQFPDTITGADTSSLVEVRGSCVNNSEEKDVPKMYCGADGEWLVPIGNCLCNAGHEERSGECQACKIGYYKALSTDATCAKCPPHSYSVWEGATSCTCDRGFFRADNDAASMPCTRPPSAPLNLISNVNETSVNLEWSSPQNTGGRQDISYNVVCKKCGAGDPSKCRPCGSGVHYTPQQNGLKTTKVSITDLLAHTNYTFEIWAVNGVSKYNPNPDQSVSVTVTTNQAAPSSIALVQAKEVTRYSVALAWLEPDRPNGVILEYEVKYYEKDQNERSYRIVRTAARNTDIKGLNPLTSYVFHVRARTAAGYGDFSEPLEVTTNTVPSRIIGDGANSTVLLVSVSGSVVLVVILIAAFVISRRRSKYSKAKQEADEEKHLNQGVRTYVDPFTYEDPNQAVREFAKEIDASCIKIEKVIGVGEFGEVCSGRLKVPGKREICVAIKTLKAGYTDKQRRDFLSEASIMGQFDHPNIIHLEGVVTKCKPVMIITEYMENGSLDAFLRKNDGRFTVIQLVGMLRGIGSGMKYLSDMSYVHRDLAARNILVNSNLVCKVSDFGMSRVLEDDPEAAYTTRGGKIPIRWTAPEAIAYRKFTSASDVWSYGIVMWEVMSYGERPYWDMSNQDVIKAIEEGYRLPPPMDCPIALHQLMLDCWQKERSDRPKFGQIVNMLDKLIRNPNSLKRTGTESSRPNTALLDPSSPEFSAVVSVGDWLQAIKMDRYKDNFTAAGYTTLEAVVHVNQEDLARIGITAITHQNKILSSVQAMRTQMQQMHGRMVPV
Assay: Binding affinity to recombinant N-terminal His-FLAG-GST-tagged EPHA4 (unknown origin) (586 to 986 residues) expressed in baculovirus infected Sf9 insect cells incubated for 1 hr by TR-FRET assay
pKd: −log10 of the molar value.
Parameter Measured: pKd

Smiles Record: CO[C@@H]1[C@H](NCCOCCOCCOCCNC(=O)CCC2=[N+]3C(=Cc4c(C)cc(C)n4[B-]3(F)F)C=C2)C[C@H]2O[C@]1(C)n1c3ccccc3c3c4c(c5c6ccccc6n2c5c31)C(=O)NC4
Reading: 5.96

* * *

Biological target: Phosphorylase b kinase gamma catalytic chain, skeletal muscle/heart isoform (Homo sapiens, UniProt Q16816)
Sequence (Q16816 whole entry, canonical isoform): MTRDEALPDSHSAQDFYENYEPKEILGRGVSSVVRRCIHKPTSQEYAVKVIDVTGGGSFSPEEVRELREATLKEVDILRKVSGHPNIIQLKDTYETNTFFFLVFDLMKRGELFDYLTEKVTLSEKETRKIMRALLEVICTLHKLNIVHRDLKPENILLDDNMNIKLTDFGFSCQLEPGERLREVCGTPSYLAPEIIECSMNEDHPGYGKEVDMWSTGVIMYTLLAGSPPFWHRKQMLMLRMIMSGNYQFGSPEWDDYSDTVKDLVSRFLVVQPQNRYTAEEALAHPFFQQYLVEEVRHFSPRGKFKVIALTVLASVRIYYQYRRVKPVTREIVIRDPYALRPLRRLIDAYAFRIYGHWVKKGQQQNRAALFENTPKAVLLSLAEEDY
Experiment: Binding affinity to recombinant full-length N-terminal His-FLAG-GST-tagged PHKG1 (unknown origin) expressed in baculovirus infected Sf9 insect cells incubated for 1 hr by TR-FRET assay
pKd: −log10 of the molar value.
Parameter Measured: pKd

Smiles Record: CO[C@@H]1[C@H](NCCOCCOCCOCCNC(=O)CCC2=[N+]3C(=Cc4c(C)cc(C)n4[B-]3(F)F)C=C2)C[C@H]2O[C@]1(C)n1c3ccccc3c3c4c(c5c6ccccc6n2c5c31)C(=O)NC4
Parameter Measured: pKd
Reading: 9.00
--
Smiles Record: CO[C@@H]1[C@H](N(C)CCOCCOCCOCCNC(=O)CCC2=[N+]3C(=Cc4c(C)cc(C)n4[B-]3(F)F)C=C2)C[C@H]2O[C@]1(C)n1c3ccccc3c3c4c(c5c6ccccc6n2c5c31)C(=O)NC4
Parameter Measured: pKd
Reading: 8.52

* * *

This section presents compounds with their documented Kd values.
Biological target: Tyrosine-protein kinase Fer (Homo sapiens, UniProt P16591)
Sequence (P16591 whole entry): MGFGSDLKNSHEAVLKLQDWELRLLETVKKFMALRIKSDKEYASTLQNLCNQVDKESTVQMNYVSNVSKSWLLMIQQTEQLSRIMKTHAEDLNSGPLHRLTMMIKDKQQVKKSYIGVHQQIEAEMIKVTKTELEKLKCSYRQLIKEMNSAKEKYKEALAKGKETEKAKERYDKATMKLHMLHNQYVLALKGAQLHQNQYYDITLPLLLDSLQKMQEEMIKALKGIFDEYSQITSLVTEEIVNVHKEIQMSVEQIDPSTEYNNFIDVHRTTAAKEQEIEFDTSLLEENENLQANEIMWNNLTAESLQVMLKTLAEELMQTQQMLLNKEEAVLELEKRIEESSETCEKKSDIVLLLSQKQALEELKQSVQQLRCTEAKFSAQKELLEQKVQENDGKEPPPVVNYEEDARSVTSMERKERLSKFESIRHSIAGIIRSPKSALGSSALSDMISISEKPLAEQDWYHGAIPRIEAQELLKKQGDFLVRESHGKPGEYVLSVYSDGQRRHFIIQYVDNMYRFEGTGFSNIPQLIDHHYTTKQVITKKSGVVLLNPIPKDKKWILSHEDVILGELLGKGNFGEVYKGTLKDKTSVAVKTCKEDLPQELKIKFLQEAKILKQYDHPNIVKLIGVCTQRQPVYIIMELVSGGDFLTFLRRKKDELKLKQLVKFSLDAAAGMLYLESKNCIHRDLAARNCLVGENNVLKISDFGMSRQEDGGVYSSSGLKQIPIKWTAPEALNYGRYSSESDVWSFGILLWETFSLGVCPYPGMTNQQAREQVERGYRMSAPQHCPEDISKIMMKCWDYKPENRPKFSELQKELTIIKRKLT
Experiment: Binding affinity to recombinant full-length N-terminal His-FLAG-GST-tagged FER (unknown origin) expressed in baculovirus infected Sf9 insect cells incubated for 1 hr by TR-FRET assay

Smiles Record: CO[C@@H]1[C@H](NCCOCCOCCOCCNC(=O)CCC2=[N+]3C(=Cc4c(C)cc(C)n4[B-]3(F)F)C=C2)C[C@H]2O[C@]1(C)n1c3ccccc3c3c4c(c5c6ccccc6n2c5c31)C(=O)NC4
Subject Of Test: Tyrosine-protein kinase Fer (Homo sapiens, UniProt P16591)
Units Text: nM
Kd: 27
--
Smiles Record: CO[C@@H]1[C@H](N(C)CCOCCOCCOCCNC(=O)CCC2=[N+]3C(=Cc4c(C)cc(C)n4[B-]3(F)F)C=C2)C[C@H]2O[C@]1(C)n1c3ccccc3c3c4c(c5c6ccccc6n2c5c31)C(=O)NC4
Subject Of Test: Tyrosine-protein kinase Fer (Homo sapiens, UniProt P16591)
Units Text: nM
Kd: 30
